Assignment: determine reported Growth Rate for the given molecules.
# System: Fibroblast
# experimentalDetails: Incucyte cell viability with human fibroblast; note: unitless GR value; below 1 slowed growth and below 0 cell loss
# Format: toxicity, cell-based
# measurementSetup: 18 h, 10 µM, compound concentration 10 uM, replicate number 2
Numbers only.

| molecule | Growth Rate |
| --- | --- |
| COc1ccccc1Nc1nc(-c2nn(Cc3c(F)cc(OCCCO)cc3F)c3ccccc23)ncc1OC | 0.58 |
| CC(Oc1cc(-c2cnn(C3CCNCC3)c2)cnc1N)c1c(Cl)ccc(F)c1Cl (centres undefined) | -0.52 |
| CCc1cnn2c(NCc3ccc[n+]([O-])c3)cc(N3CCCCC3CCO)nc12 (centres undefined) | -0.04 |

If you can, please state the reported Growth Rate value of CCN1C(=O)C(c2cccc(C(=O)O)c2)C(=O)N(c2ccccc2)c2cc(C(F)(F)F)ccc21 (centres undefined) .
0.96

====

Provide the reported Growth Rate of each item.
# Tested on: HEK-293T
# experimentalDetails: Incucyte cell viability with HEK293T; note: unitless GR value; below 1 slowed growth and below 0 cell loss
# Assay type: toxicity, cell-based
# measurementSetup: human, 18 h, 10 µM, compound concentration 10 uM, replicate number 1

Completed entries (count: 4):
| molecule | reading |
| --- | --- |
| Cl.Clc1ccc(OC[C@H]2CCN2)cn1 | 0.8 |
| Cc1cc(-c2ccnc(Nc3cnn(C)c3)n2)ccc1CNC(=O)N1CC(OC(C)C)C1 | 0.79 |
| C[C@@H](Oc1cc(-n2cnc3ccc(OC4CCN(C)CC4)cc32)sc1C(N)=O)c1ccccc1Cl [GSK-579289A] | 0.82 |
| Cn1c2ccccc2c2c3c(c4c5ccccc5n(CCC#N)c4c21)CNC3=O | 0.36 |

Hey, can you go through the list below and give me Growth Rate for every item?
1. CCC(C(=O)Nc1ccc(-c2cc3ccccc3s2)c(C(N)=O)c1)c1nccs1 (stereo not given)
2. CCn1c(-c2nonc2N)nc2c(C#CC(C)(C)O)ncc(OCC3CCCNC3)c21 (stereo not given)

1. 0.48
2. -0.26

Give measured Growth Rate for every item shown.
1. COc1cc(N)c(Cl)cc1C(=O)NC1CN2CCC1CC2.Cl (stereo not given)
2. Cc1ccc(-c2cn3nc(C(=O)NC4(c5ccc(F)cc5)CN(C)C4)c(C(C)C)c3c(=O)[nH]2)cc1C
3. O=C(Nc1ccc(-n2nc(C(F)(F)F)cc2C(F)(F)F)cc1)c1ccncc1F
4. Cc1nc2ccc(Oc3ccc(F)cc3)cc2c(=O)n1C[C@H]1CCCN(C(C)C)C1.Cl
5. O=C(NCc1cccnc1OCC(F)(F)F)c1cncc(-c2ccc(Cl)cc2)c1
6. COc1cc(N2CCN(C)CC2)ccc1Nc1ncc2c(n1)N(C)c1ccccc1C(=O)N2CC(F)(F)F
7. O=C(O)C[C@H]1CC[C@H](c2ccc(NC(=O)c3nnc(Nc4ccc(F)c(F)c4)o3)cc2)CC1
8. Cc1ccc(NS(=O)(=O)c2ccc3c(c2)C2C=CCC2C(c2ccc(C(=O)O)cc2)N3)cc1C (stereo not given)

1. 0.18
2. 0.19
3. 0.25
4. 0.16
5. 0.84
6. 0.22
7. 0.76
8. 0.79

Would you mind listing Growth Rate for each of the following molecules?
1. CN1CCN(c2ccc(C(=O)Nc3n[nH]c4ccc(Cc5cc(F)cc(F)c5)cc34)c(NC3CCOCC3)c2)CC1
2. C/C=C1\C(=O)CC2C3CCC4=CC(=O)CC[C@]4(C)C3CC[C@]12C (stereo not given in full)
3. O=C1CN(c2ccccc2F)C(NCCN2CCOCC2)=C1c1nc2cc(Br)ccc2c(=O)[nH]1

1: -0.67; 2: 0.83; 3: 0.53
